Source: patent US6646003B2

Assay: in vitro metabolism: hydrolytic conversion of NSAID amides to free carboxylic acids
Format: in vitro ADME, NZA rabbit
Conditions: rabbit iris/ciliary body, 36° C., GBR buffer pH 7.6, four to six hours
Procedure: Freshly dissected iris/ciliary body from the NZA rabbit was incubated at 36° C. for a period of four to six hours in 0.5 ml of GBR buffer (pH 7.6) supplemented with amide derivatives of the indicated NSAIDs. Samples of 0.1 ml were removed for HPLC analysis to monitor the hydrolytic conversion of NSAID amides to free carboxylic acids.
rate of drug hydrolysis by the ICB strictly under 0.3 nM/min/mg tissue means true (1); at 0.3 nM/min/mg tissue or over means false (0).

Is the reported rate of drug hydrolysis by the ICB for CNC(=O)Cc1cccc(C(=O)c2ccc(Br)cc2)c1N [monomethyl amide derivative of bromfenac] strictly below 0.3 nM/min/mg tissue?
true (1)

Is the reported rate of drug hydrolysis by the ICB for CC(C(N)=O)c1ccc(-c2ccccc2)c(F)c1 (centres unmarked) [amide derivative of flurbiprofen, 2-(3-fluoro-4-phenyl)-propionamide] strictly below 0.3 nM/min/mg tissue?
true (1)

Is the reported rate of drug hydrolysis by the ICB for NC(=O)C1CCn2c(C(=O)c3ccccc3)ccc21 (centres unmarked) [amide derivative of ketorolac] strictly below 0.3 nM/min/mg tissue?
false (0)

Is the reported rate of drug hydrolysis by the ICB for NC(=O)Cc1cccc(C(=O)c2ccccc2)c1N [amide derivative of amfenac] strictly below 0.3 nM/min/mg tissue?
false (0)

Is the reported rate of drug hydrolysis by the ICB for NC(=O)Cc1cccc(C(=O)c2ccc(Br)cc2)c1N [amide derivative of bromfenac] strictly below 0.3 nM/min/mg tissue?
true (1)
